# System: HOP-92
# Assay overview: NCI tumour cell line growth inhibition, 48 h
Active and inactive are the calls of the source. No stated cut-off is given here; in the data, active = GI50 up to about 1.1 µM and inactive = higher.
Measurement type: GI50

Query (compound): `S=C(N/N=C(\c1ccccc1)c1ccccn1)NC1CCCCC1` ; field requested: GI50 > 100 µM (inactive)

Query (compound): `Nc1nc(Cl)nc(NCc2ccccc2)n1` ; field requested: GI50 > 100 µM (inactive)

Query (compound): COc1cc(/C=C2\CCC(C)/C(=C\c3cc(OC)c(OC)c(OC)c3)C2=O)cc(OC)c1OC (stereo unspecified) ; field requested: GI50 > 100 µM (inactive)

Query (compound): `COc1cc(/C=C2\N=C(c3ccccc3)N(c3nc4ccc(Sc5ccccc5)cc4[nH]3)C2=O)cc(OC)c1OC` ; field requested: GI50 58.6 µM (inactive)

Query (compound): `O=c1[nH]c2ccc(C(F)(F)F)cc2nc1Cc1ccccc1` ; field requested: GI50 18.7 µM (inactive)

Query (compound): `COc1cc(Nc2nc3ccccc3nc2C(C)C)cc(OC)c1OC` ; field requested: GI50 34 µM (inactive)

Query (compound): CC(C)(C)c1cc2c(OC/C=C/c3ccccc3)c(c1)Cc1cc(C(C#N)(OC/C=C/c3ccccc3)OC/C=C/c3ccccc3)cc(c1OC/C=C\c1ccccc1)Cc1cc(C(C)(C)C)cc(c1OC/C=C/c1ccccc1)Cc1cc(C(C#N)(OC/C=C\c3ccccc3)OC/C=C/c3ccccc3)cc(c1OC/C=C\c1ccccc1)C2 (stereo unspecified) ; field requested: GI50 95.5 µM (inactive)

Query (compound): `Cc1ccc(/C=C2\CCCCCC2=O)cc1` ; field requested: GI50 > 100 µM (inactive)

Query (compound): CC(C)c1c(O[Si](C(C)C)(C(C)C)C(C)C)c2c3c(ccc4c3c1OC4(C)C)C(C)CC2 (stereo unspecified) ; field requested: GI50 > 100 µM (inactive)

Query (compound): `COc1cc(/C=C2\N=C(c3ccccc3)N(c3cc4cc(Sc5ccccc5)ccc4[nH]3)C2=O)cc(OC)c1OC` ; field requested: GI50 6.92 µM (inactive)

Query (compound): O=C1/C(=C\c2cccc(Oc3ccccc3)c2)SC(c2ccccc2)N1c1cccc(Cl)c1 (stereo unspecified) ; field requested: GI50 > 100 µM (inactive)

Query (compound): `O=S(=O)(c1ccccc1)n1cnc(CCc2ccccc2)n1` ; field requested: GI50 > 100 µM (inactive)

Query (compound): `Cc1cn([C@@H]2C[C@](C)(CO)N(C)O2)c(=O)[nH]c1=O` ; field requested: GI50 > 100 µM (inactive)

Query (compound): `CCCCNC(=O)N/C=C1\C(=O)Oc2ccccc2C1=O` ; field requested: GI50 24.9 µM (inactive)

Query (compound): `O=C(O)CCCC#CCCCC(=O)O` ; field requested: GI50 > 100 µM (inactive)

Query (compound): `COc1ccc(-c2cc(=O)c3c(O)c(O)c(OC)cc3o2)cc1O` ; field requested: GI50 > 100 µM (inactive)

Query (compound): CCc1cccc(C)c1NC(=O)CC1C(=O)Nc2ccccc2[S+]1[O-] (stereo unspecified) ; field requested: GI50 53.7 µM (inactive)

Query (compound): `COc1ccc2nc(-c3ccccn3)cc(O)c2c1` ; field requested: GI50 43.9 µM (inactive)

Query (compound): CN(C)CC(O)CNC(=O)Nc1ccccc1 (stereo unspecified) ; field requested: GI50 > 100 µM (inactive)

Query (compound): `COc1ccccc1/C=C(\C#N)c1ccccc1` ; field requested: GI50 45 µM (inactive)

Query (compound): `Cn1c(=O)nc2n(-c3ccc(Cl)cc3)c(-c3ccccc3)c(-c3ccccc3)nc-2c1=O` ; field requested: GI50 16.5 µM (inactive)

Query (compound): COc1ccc(C(=O)CC(c2ccccc2)[C@H]2C(c3ccc(OC)cc3)=Nc3c(nc(SC)n(C)c3=O)NC2c2ccccc2)cc1 (stereo partly specified) ; field requested: GI50 > 100 µM (inactive)

Query (compound): `C=C(C(=O)OC)[C@H]1CC/C(C)=C/CC/C(C)=C/CC[C@@]2(C)O[C@@H]2C1` ; field requested: GI50 16.4 µM (inactive)

Query (compound): `Cc1cn(CC2=NCC(C)(C)CN2)c(=O)[nH]c1=O` ; field requested: GI50 > 100 µM (inactive)

Query (compound): N#C[BH2-][n+]1cn(C2CC(OP(=O)(O)OCC3OC(n4cnc5c(=O)[nH]c(N)nc54)CC3O)C(CO)O2)c2nc(N)[nH]c(=O)c21 (stereo unspecified) ; field requested: GI50 > 100 µM (inactive)

Query (compound): `O=c1[nH]c2cc([N+](=O)[O-])c(N/N=C/c3ccc(Cl)cc3Cl)c([N+](=O)[O-])c2[nH]1` ; field requested: GI50 32.9 µM (inactive)
